Test system: Escherichia coli TOP10;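 note: peptides expressed intracellularly from a pBAD plasmid library in pooled LB shake-flask culture, induced with 0.3% L-arabinose, DNA abundance read by NGS, three biological replicates, DESeq2 with apeglm shrinkage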
test-name: shrunken log2 fold change of peptide-encoding DNA abundance (4.5 h post-induction vs induction); higher = less antimicrobial activity (less host growth inhibition)
applied-conditions: time post-induction: 4.5 h; library: site-saturation at positions 5, 18, 19, 20
Mark T for reported shrunken log2 fold change of -0.0007 or greater; mark F for anything smaller.

RRIRLRPPRLPRPRPRPEMDPRP : F
RRIRERPPRLPRPRPRPIIKPRP : F
RRIRCRPPRLPRPRPRPYDMPRP : F
RRIRKRPPRLPRPRPRPCWNPRP : F
RRIRCRPPRLPRPRPRPCHNPRP : F
RRIRGRPPRLPRPRPRPHWDPRP : T

Input line: Confirm if shrunken log2 fold change reported for the sequence RRIRGRPPRLPRPRPRPYMTPRP is -0.0007 or above.
Output line: T

Input line: Quick check: does RRIRGRPPRLPRPRPRPMCGPRP have shrunken log2 fold change greater than or equal to -0.0007?
Output line: T

Input line: Confirm if shrunken log2 fold change reported for the sequence RRIRRRPPRLPRPRPRPEFTPRP is -0.0007 or above.
Output line: T

Input line: Check this sequence for shrunken log2 fold change at or above -0.0007: RRIRARPPRLPRPRPRPFFIPRP
Output line: F

Every entry's value here was drawn from the supplement of paper PMC9112550.
